Assay: Cytotoxicity assay (MTT) parallel to HCMV infectivity assay
Format: cell-based
Details: human, HFF cells, read-out: HCMV TC50

molecule	CC50 at 15 days
CCCN(C(=O)c1csc(-c2cnn(-c3ccccc3)c2)n1)C1CCNC1 (racemic) [racemic mixture of compounds 170 and 171]	> 75 µM

====

The following compounds are listed with their measured activation at 0.8 µM values.
Tested on: Human osteosarcoma U20S cells
Experiment: Assay to measure lysosome and autolysosome formation (acidic vesicle formation, LysoView/LysoTracker staining)
Type: cell-based
Details: Homo sapiens; U2OS cells, concentration of 0.8 μM; read-out: Activity (percentage increase in acidic vesicle formation over the DMSO-treated control), Table 2
reported_property: activation at 0.8 µM

compound	reported_property	result
CC(C)N(C(=O)c1csc(-c2cnn(-c3ccccn3)c2)n1)C1CCNCC1 [Compound 307]	activation at 0.8 µM	50 to 100%
CCCN(C(=O)c1csc(-c2cnn(-c3ccc(OC(F)(F)F)cc3)c2)n1)[C@H]1CCNC1 [Compound 45]	activation at 0.8 µM	30 to 50%
CC(C)N(C(=O)c1csc(-c2cnn(-c3ccccc3C(F)(F)F)c2)n1)C1CCNCC1 [Compound 47]	activation at 0.8 µM	30 to 50%
NC[C@H]1CCCN1C(=O)c1ccc(-c2cnn(-c3ccccc3)c2)o1 [Compound 11]	activation at 0.8 µM	10 to 30%
N[C@@H]1CCCN(C(=O)c2csc(-c3cnn(-c4ccccc4)c3)n2)C1 [Compound 143]	activation at 0.8 µM	10 to 30%
CCCN(C(=O)c1csc(-c2cnn(-c3ccncc3)c2)n1)[C@@H]1CCNC1 [Compound 23]	activation at 0.8 µM	10 to 30%
NC1CN(C(=O)c2csc(-c3cnn(-c4ccccc4)c3)n2)C1 [Compound 124]	activation at 0.8 µM	50 to 100%
CC(C)N(C(=O)c1csc(-c2cnn(-c3ccccc3Cl)c2)n1)C1CCNCC1 [Compound 66]	activation at 0.8 µM	10 to 30%
CCCN(C(=O)c1csc(-c2cnn(-c3ccc(OC(F)(F)F)cc3)c2)n1)[C@@H]1CCNC1 [Compound 46]	activation at 0.8 µM	30 to 50%
CCCN(C(=O)c1csc(-c2cnc(-c3ccccc3)o2)n1)[C@H]1CCNC1 [Compound 35]	activation at 0.8 µM	10 to 30%
CC(C)N(C(=O)c1ccc(-c2cnn(-c3ccccc3)c2)[nH]1)[C@H]1CCNC1 [Compound 314]	activation at 0.8 µM	> 100%
CCCN(C(=O)c1csc(-c2cnn(-c3cccc(C)c3)c2)n1)[C@@H]1CCNC1 [Compound 29]	activation at 0.8 µM	30 to 50%
CCCN(C(=O)c1ccc(-c2cnn(-c3ccccc3)c2)o1)[C@H]1CCNC1 [Compound 98]	activation at 0.8 µM	50 to 100%
O=C(NC[C@@H]1CCNC1)c1cc(-c2cnn(-c3ccccc3)c2)cs1 [Compound 16]	activation at 0.8 µM	10 to 30%
CCCN(C(=O)c1csc(-c2cnn(-c3ccc(Cl)cc3)c2)n1)[C@H]1CCNC1 [Compound 40]	activation at 0.8 µM	10 to 30%
CCCN(C(=O)c1csc(-c2cnn(-c3ccc(F)cc3)c2)n1)[C@H]1CCNC1 [Compound 58]	activation at 0.8 µM	10 to 30%
NC[C@H]1CCCN1C(=O)c1csc(-c2cnn(-c3ccc(C(F)(F)F)cc3)c2)n1 [Compound 76]	activation at 0.8 µM	10 to 30%
CCCN(C(=O)c1csc(-c2cnn(-c3ccccc3C)c2)n1)[C@H]1CCNC1 [Compound 87]	activation at 0.8 µM	10 to 30%
CC(C)N(C(=O)c1csc(-c2cnn(-c3ccccc3)c2)n1)C1C[C@H]2C[C@@H]1CN2 (some centres unmarked) [Compound 316]	activation at 0.8 µM	30 to 50%
CCCN(C(=O)c1csc(-c2cnc(-c3ccccc3)o2)n1)C1CCNC1 (centres unmarked) [Compound 116, 2-(2-phenyl-1,3-oxazol-5-yl)-N-propyl-]	activation at 0.8 µM	50 to 100%
